Tested on: HIV-1 M:B_Lai
Assay details: Antiviral activity against HIV-1 M:B_Lai replication in human C8166 cells assessed as inhibition of p24 antigen expression level after 4 days by ELISA
Assay type: functional, organism-based
Condition label: Human immunodeficiency virus 1, LAI, C8166, 96 h
pEC50: −log10 of the molar value. Where a name gives a salt, the structure may show the parent alone.
Measure: pEC50

(1) CC1=CC(=O)C=C[C@]2(C)[C@H]3[C@@H](O)C=C(C)[C@@]4(Cc5c(c(C)c(C)oc5=O)O4)[C@]3(C)CC[C@@H]12
(2) CC(C)(C)NC(=O)[C@@H]1CN(Cc2cccnc2)CCN1C[C@@H](O)C[C@@H](Cc1ccccc1)C(=O)N[C@H]1c2ccccc2C[C@H]1O [INDINAVIR SULFATE]
**Query** Please indicate which item has the smaller measured pEC50: 1 versus 2 Label of pick, please.
**Result** 1
